Tested on: HS 578T breast
Assay: NCI tumour cell line growth inhibition, 48 h
Please go through the items and note down their TGI.
Provide the reading as a plain figure in µM.

Task: // query TGI value for entry COc1ccc(/C=C2\N=C3N(Cc4ccccc4)C=C(N)N3C2=O)cc1
Output: 73

Task: // query TGI value for entry COc1ccccc1CNCCCN1C(=O)c2ccc3c4c(ccc(c24)C1=O)C(=O)N(CCCNCCCCN)C3=O
Output: 5.91

###

Please go through the items and note down their TGI.
Tested on: UO-31 renal
Assay: NCI tumour cell line growth inhibition, 48 h

Task: // query TGI value for entry COc1cc2c(cc1OC)C(Sc1ccc(Cl)cc1)c1c(nc(N)c(C#N)c1N)O2 (stereo not given)
Output: 2.46 µM

Task: // query TGI value for entry Cc1ccc(-n2cc(/C(N)=N/O)c3ccccc3c2=O)cc1
Output: > 100 µM

Task: // query TGI value for entry COc1ccc(/C(C#N)=C2/O/C(=N/N)C(c3ccc(OC)c(OC)c3)C2=O)cc1OC (stereo not given)
Output: > 100 µM

Task: // query TGI value for entry COC(=O)[C@]1(c2cc3ccccc3[nH]2)CC2CNC1C1OC(C)(C)OC21 (stereo not given in full)
Output: > 100 µM

Task: // query TGI value for entry COc1cc2ccc(CC(=O)O)cc2cc1OC
Output: > 100 µM

Hello, the source for this data is PubChem BioAssay (NCI), in case you need it.
